assay: High-throughput drug toxicity screening in the BPDCN cell line Cal-1 (AID 1224825); settings: Cal-1 BPDCN cell viability, qHTS; at 45.8 µM (top of the series) unless noted;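 further: 100% = DMSO and 0% = bortezomib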
Please provide measured viability (% of control) for the entries that follow.
Numbers only, in %.

// lookup viability (% of control) for `COC(=O)C[C@](O)(CCCC(C)(C)O)C(=O)O[C@@H]1C(OC)=C[C@]23CCCN2CCc2cc4c(cc2[C@H]13)OCO4`
134

I am curious: what viability (% of control) value has been reported for `C1Cc2[nH]nc(-c3nn[nH]n3)c2C1` ?
98.5

# lookup: viability (% of control) of `O=C(c1ccc(Nc2nccc(-c3cc4ccccc4s3)n2)cc1)N1CCC(N2CCCC2)CC1`
3.16

Name the recorded viability (% of control) for O=C(O)C1(Cc2cccc(Nc3nccs3)n2)CCC(Oc2cccc(Cl)c2F)CC1 (centres undefined) .
33.8

GET /values?readout=viability (% of control)&item= `CC[C@@H]1C(=O)N(C)c2cnc(Nc3ccc(C(=O)NC4CCN(C)CC4)cc3OC)nc2N1C1CCCC1`
2.57

Could you tell me viability (% of control) for each of these compounds? They are listed below.
1. CCOC(=O)C1=C(C)NC2=C(C(=O)CC(C)(C)C2)C1c1ccc(-c2ccccc2)cc1 (centres undefined)
2. OCCCNc1cc(-c2ccnc(Nc3cccc(Cl)c3)n2)ccn1

1: 4.47; 2: 2.53

* * *

assay: qHTS for identification of novel therapeutic agents for treatment of microphthalmiaassociated transcription factor (MiT) renal cell carcinoma (RCC) (AID 1963991); conditions: TFE3-RCC viability, CellTiter-Glo, 48 h; measured here: UOK145 Z-AUC; stronger effect = lower value;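 further: curves scaled with 100% = DMSO viability and 0% = empty wells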
Records with an inconclusive call do not appear.
Give z-score for every item shown.
Numbers only.

Use the examples below as a reference point.
Requested read-out: z-score. Entry: `CCn1nnc2c(N3CCOCC3)nc(-c3ccc(NC(=O)Nc4ccc(C(=O)N5CCN(C)CC5)cc4)cc3)nc21`
-1.94

Reported z-score for `COC(=O)Nc1nc2ccc(C(=O)c3ccc(F)cc3)cc2[nH]1` : what is it?
-0.98

# input compound: `CN1CC[C@@H](c2c(O)cc(O)c3c(=O)cc(-c4ccccc4Cl)oc23)[C@@H](O)C1` ; wanted: its z-score
-2.13

Quick one: z-score for `O=C(C=Cc1c(C(=O)O)[nH]c2cc(Cl)cc(Cl)c12)Nc1ccccc1` ?
0.334

If you can, please state the reported z-score value of CC(NCc1ccc2c(c1)nc(NC(=O)c1ccc(-c3cn[nH]c3)s1)n2CC(C)(C)O)C(C)(C)C (centres undefined) .
-1.22

Data request, read-out z-score, for `N#Cc1c(O)c2c(-c3ccc(-c4ccccc4O)cc3)csc2[nH]c1=O`
0.62

Look up z-score for the entries below, preserving their order.
1. COC(=O)C1=C(C)NC(C)=C(C(=O)OCCN2CCN(C(c3ccccc3)c3ccccc3)CC2)C1c1cccc([N+](=O)[O-])c1 (centres undefined)
2. CS(=O)(=O)N1CCN(Cc2cc3nc(-c4cccc5[nH]ncc45)nc(N4CCOCC4)c3s2)CC1
3. O=C(O)Cn1nnc(-c2cc(N3CCC(Oc4cc(F)ccc4Br)CC3)no2)n1
4. Nc1ccc(S(=O)(=O)Nc2ncccn2)cc1

1: -0.011; 2: -1.5; 3: 1.36; 4: -0.336

Below are 7 compounds. Give each one its z-score.
1. C[C@H]1C[C@@H]2[C@@H]([C@@H](O)C[C@@]3(C)[C@H]2CC[C@]3(O)C(=O)CO)[C@@]2(C)C=CC(=O)C=C12
2. O=C(Nc1cc(C(F)(F)F)cc(C(F)(F)F)c1)c1cc(Cl)ccc1O
3. CCN1CCN(CC(=O)Nc2ccc(-c3cccc4c(=O)cc(N5CCOCC5)oc34)c3sc4ccccc4c23)CC1
4. C[C@]12CC[C@H](O)CC1=CCC1C2CC[C@]2(C)C(n3cnc4ccccc43)=CCC12 (some centres undefined)
5. Nc1ccn([C@@H]2CS[C@H](CO)O2)c(=O)n1
6. Cc1ccc(NC(=O)C2(c3ccc4c(c3)OC(F)(F)O4)CC2)nc1-c1cccc(C(=O)O)c1
7. Clc1cccc(-c2nnnn2Cc2cccnc2)c1Cl

1: 0.428; 2: -1.95; 3: -2.12; 4: -0.0216; 5: 0.391; 6: -1.79; 7: 0.374

# return z-score for each item in the list
1. Cn1c2ccccc2c2c3c(c4c5ccccc5n(CCC#N)c4c21)CNC3=O
2. COc1cc(=C2C=c3ccccc3=N2)[nH]c1=Cc1[nH]c(C)cc1C

[-1.2, -0.974]

* * *

Please respond with reported Potency for every item in the list.
assay: qHTS of pediatric cancer cell lines to identify multiple opportunities for drug repurposing: Confirmatory screen for DAOY cells (AID 1347114); conditions: DAOY medulloblastoma cells viability, cytotoxicity qHTS; series mostly up to 45.9 µM; further: potency means the concentration at half of the fitted maximal effect; nearly all actives have a fitted effect of over 65% in size
Results filed as inconclusive are left out. The source made the active and inactive calls. Calls come from the whole dose curve; as a rule, active = well fitted cell-killing curve with a large enough effect; inconclusive = small, poorly fitted or top-dose-only effect; inactive = no such curve, though single readings can be large or run the other way.

Solved entries:
Need Potency, item `CN(c1ncccc1CNc1nc(Nc2ccc3c(c2)CC(=O)N3)ncc1C(F)(F)F)S(C)(=O)=O`
6.57 µM (active)

Given `COc1cc2c(Oc3ccc(NC(=O)C4(C(=O)Nc5ccc(F)cc5)CC4)cc3F)ccnc2cc1OCCCN1CCOCC1` , state its recorded Potency.
11.7 µM (active)

Item `CC[C@H]1CN2CCc3cc(OC)c(OC)cc3[C@H]2C[C@@H]1C[C@@H]1NCCc2cc(OC)c(OC)cc21` has what recorded Potency?
3.69 µM (active)

Give the measured Potency of `Cc1ccc(C(=O)Nc2cccc(C(F)(F)F)c2)cc1-c1ccc2nc(NCCN3CCOCC3)ncc2c1` .
20.8 µM (active)

# input compound: `CC(C)c1nn(-c2c(Cl)cccc2Cl)c2nc(Cc3ccc(OCCO)cc3)[nH]c(=O)c12` ; wanted: its Potency
0.208 µM (active)

***
// Potency lookup, key: `Cc1ccc2nc(NC(=O)CSc3nc4c(c(=O)n3-c3ccccc3)SCC4)sc2c1`
7.37 µM (active)

* * *

Test: Quantitative High-Throughput drug screen in 47 multiple myeloma cell lines against the NCATS MIPE library collection: Karpas25_ECACC cell viability assay (AID 1918968; further: nearly all actives have a fitted effect of over 35% in size)
Settings: Karpas25 myeloma viability, CellTiter-Glo ATP, 48 h; series mostly up to 45.8 µM
Description: PI: Beverly A. Mock Ph.D. Laboratory of Cancer Biology and Genetics, Center for Cancer Research, National Cancer Institute, National Institute of Health, Bethesda, Maryland […] 5; Detector; 425V; Luminescence; Viewlux PerkinElmer. […] 1. […] Briefly, the corresponding myeloma cell lines were screened in 1,536-well plates with 500 cells, 5-uL per well for inhibition of cell viability (assessed by measuring ATP levels with CellTiterGlo). […]
Inconclusive results are not listed. Calls of active or inactive are those of the source. Calls come from the whole dose curve; as a rule, active = well fitted cell-killing curve with a large enough effect; inconclusive = small, poorly fitted or top-dose-only effect, or effect the other way; inactive = no such curve, though single readings can be large or run the other way.
The reply should be one of these categories: T for active, F for inactive

Check out these entries, answers already filled in.
Record request — test call for `Cc1nc2ccc(CN(C)c3ccc(C(=O)N[C@@H](CCC(=O)O)C(=O)O)s3)cc2c(=O)[nH]1`
F

What did the test return for `Cn1cc(-c2[nH]c3cc(NC(=O)[C@H](N)C4CCCCC4)cc4c3c2C=NNC4=O)cn1` ?
T

---
Write down the call the test reported for this molecule. Item: `NCC(=O)Nc1ccc(-n2nc(C(F)(F)F)cc2-c2ccc3c(ccc4ccccc43)c2)cc1`
T

Which outcome was entered for the molecule `CCN(CC)CCCCNc1ncc2cc(-c3cc(OC)cc(OC)c3)c(NC(=O)NC(C)(C)C)nc2n1` in this test?
T

* * *

experiment: qHTS Screen of the MIPE 4.0 Collection Against Ewings Sarcoma (TC71) (AID 1259253); conditions: TC71 Ewing sarcoma viability, CellTiter-Glo, 48 h; series mostly up to 45.8 µM; further: potency means the concentration at half of the fitted maximal effect; nearly all actives have a fitted effect of over 40% in size
Results filed as inconclusive are left out. Calls of active or inactive are those of the source. The call rests on the fitted dose curve; in most records, active means well fitted inhibition curve with a large enough effect; inconclusive means small, poorly fitted or top-dose-only effect; inactive means no such curve, though single readings can be large or run the other way.
Property Measured: Potency

For the compound shown here, `NC(=O)Nc1cc(-c2cccc(F)c2)sc1C(=O)N[C@H]1CCCNC1` , give the reported Potency.
0.0935 µM (active)

Param item = `CC(=O)Nc1sc2c(c1-c1nc3ccccc3s1)CNC2` ; retrieve measured Potency.
14.8 µM (active)

I have this compound here, Nc1ncnc2c1c(-c1cccc(OCc3ccccc3)c1)cn2C1CC(CN2CCCC2)C1 (stereo not given) , and I need its recorded Potency.
5.26 µM (active)

Bench note: what Potency did `CN1CCN(c2ccc3nc(-c4c(N)c5c(F)cccc5[nH]c4=O)[nH]c3c2)CC1` show?
11.8 µM (active)

Okay, next one:
Returns the measured Potency for the input compound. Input: `Cc1nc2cnc3ccc(C#Cc4cccnc4)cc3c2n1-c1ccc(C(C)(C)C#N)cc1`
0.132 µM (active)

* * *

tested on: Hek293T; test: Primary qHTS to identify gynecologic anti-cancer compounds using libraries of approved drugs and bioactive compounds (AID 1345084); conditions: Gynecologic cancer cell panel viability, ATPlite luminescence, 48 h, control line for the selectivity index; series mostly up to 57.5 µM; further: nearly all actives have a fitted effect of over 55% in size; further: potency means the concentration at half of the fitted maximal effect
Records with an inconclusive call do not appear. Activity calls are given as the source filed them. Calls come from the whole dose curve; as a rule, active = well fitted cell-killing curve with a large enough effect; inconclusive = small, poorly fitted or top-dose-only effect, or effect the other way; inactive = flat fitted curve, though single readings scatter.
Property Measured: Potency

Field: example entries. Status: answers known.
Request the reported Potency associated with `CN1CCC(CNc2ccc3ncc(-c4cccc(OC(F)(F)F)c4)n3n2)CC1`
inactive

May I ask what Potency has been recorded for `C=CC(=O)Nc1cc2c(Nc3ccc(F)c(Cl)c3)ncnc2cc1OCCCN1CCOCC1` ?
inactive

Sample `C=CCn1c(=O)c2cnc(Nc3ccc(N4CCN(C)CC4)cc3)nc2n1-c1cccc(C(C)(C)O)n1` — what was its Potency?
631 nM (active)

Return reported Potency; argument: C[C@]12CC[C@H](O)CC1=CCC1C2CC[C@]2(C)C(n3cnc4ccccc43)=CCC12 (stereo not given in full)
inactive

Find the recorded Potency belonging to `O=C(c1ccc(Nc2nccc(-c3cc4ccccc4s3)n2)cc1)N1CCC(N2CCCC2)CC1` and report it.
inactive

Hi! Can you tell me Potency for each of these compounds?
1. CC(C)Nc1cc(C(F)(F)F)cc2nc(NC(=O)c3cccnc3)nn12
2. COc1cc2c(Oc3ccc(NC(=O)C4(C(=O)Nc5ccc(F)cc5)CC4)cc3F)ccnc2cc1OCCCN1CCOCC1
3. OCCCNc1cc(-c2ccnc(Nc3cccc(Cl)c3)n2)ccn1
4. Fc1cc(-c2cccc3ncc(-c4cnn(C5CCNCC5)c4)nc23)cc(F)c1CN1CCOCC1
5. CN(C)CC(C)(C)CNc1nn2c(-c3ccccc3)nnc2cc1C1CCC1
6. CNC(=O)c1ccc(-c2cnc3ncc(Cc4ccc5ncccc5c4)n3n2)cc1F
7. COc1cc2c(Nc3ccc(NC(=O)c4ccccc4)cc3)ncnc2cc1OCCCN1CCOCC1

1: inactive; 2: 7940 nM (active); 3: 199 nM (active); 4: inactive; 5: inactive; 6: inactive; 7: inactive
